- target or test system: NLRP3 inflammasome (Homo sapiens, UniProt Q96P20)
- Construct: NLRP3-dependent IL-1β secretion was stimulated in PMA-differentiated THP-1 cells by the addition of nigericin
- Sequence (Q96P20 whole entry): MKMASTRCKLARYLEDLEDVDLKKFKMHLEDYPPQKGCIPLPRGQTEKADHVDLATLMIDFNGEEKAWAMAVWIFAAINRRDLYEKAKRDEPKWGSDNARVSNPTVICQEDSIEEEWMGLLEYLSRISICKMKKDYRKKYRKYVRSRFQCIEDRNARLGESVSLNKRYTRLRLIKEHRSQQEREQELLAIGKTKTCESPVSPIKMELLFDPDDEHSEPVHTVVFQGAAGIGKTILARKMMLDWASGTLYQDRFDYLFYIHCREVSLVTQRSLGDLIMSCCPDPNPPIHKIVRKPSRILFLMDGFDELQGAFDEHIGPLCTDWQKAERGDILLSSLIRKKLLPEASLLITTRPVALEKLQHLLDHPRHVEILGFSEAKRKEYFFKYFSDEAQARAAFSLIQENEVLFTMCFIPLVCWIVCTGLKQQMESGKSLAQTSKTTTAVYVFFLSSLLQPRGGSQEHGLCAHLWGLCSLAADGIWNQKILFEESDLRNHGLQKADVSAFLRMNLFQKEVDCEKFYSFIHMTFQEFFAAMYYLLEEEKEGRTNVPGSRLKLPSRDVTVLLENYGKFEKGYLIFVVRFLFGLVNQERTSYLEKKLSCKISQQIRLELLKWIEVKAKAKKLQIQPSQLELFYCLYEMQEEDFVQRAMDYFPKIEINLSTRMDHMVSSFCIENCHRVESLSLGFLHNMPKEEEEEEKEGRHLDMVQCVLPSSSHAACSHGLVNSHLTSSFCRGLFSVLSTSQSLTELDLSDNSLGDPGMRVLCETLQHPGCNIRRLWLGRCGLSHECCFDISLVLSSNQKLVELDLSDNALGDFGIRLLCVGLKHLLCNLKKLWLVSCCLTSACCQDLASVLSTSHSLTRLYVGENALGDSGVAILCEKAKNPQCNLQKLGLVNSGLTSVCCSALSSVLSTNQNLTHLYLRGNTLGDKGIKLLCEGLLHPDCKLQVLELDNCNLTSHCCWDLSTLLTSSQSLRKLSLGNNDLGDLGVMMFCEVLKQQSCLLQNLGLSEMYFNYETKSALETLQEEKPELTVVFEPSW
- assay summary: IL-1β secretion assay (nigericin-activated, PMA-differentiated THP-1 cells, HTRF)
- particulars: 15 μM nigericin, 3 h, arithmetic mean of at least 3 experiments
pIC50: −log10 of the molar value.
observable: pIC50

P: Cc1cc(C(F)(F)F)cc(O)c1-c1nnc(N[C@@H]2CCCN(C)C2)c2c1COC2 [Reference ex. 3]
Q: Cc1cc(C(F)(F)F)cc(O)c1-c1cc(CO)c(N[C@@H]2CCCN(C)C2)nn1
[Q] Compare P and Q and name the one whose reported pIC50 is smaller. In your reply, give the label of the chosen option.
[A] P

###

Recorded measurements of pIC50, one per entry
- target or test system: alpha-subunit of the hERG channel (Homo sapiens, UniProt Q12809)
- Construct: expressed in transfected cells; host or cells: CHO (T-REX) cells, tetracycline-induced
- Sequence (Q12809 whole entry): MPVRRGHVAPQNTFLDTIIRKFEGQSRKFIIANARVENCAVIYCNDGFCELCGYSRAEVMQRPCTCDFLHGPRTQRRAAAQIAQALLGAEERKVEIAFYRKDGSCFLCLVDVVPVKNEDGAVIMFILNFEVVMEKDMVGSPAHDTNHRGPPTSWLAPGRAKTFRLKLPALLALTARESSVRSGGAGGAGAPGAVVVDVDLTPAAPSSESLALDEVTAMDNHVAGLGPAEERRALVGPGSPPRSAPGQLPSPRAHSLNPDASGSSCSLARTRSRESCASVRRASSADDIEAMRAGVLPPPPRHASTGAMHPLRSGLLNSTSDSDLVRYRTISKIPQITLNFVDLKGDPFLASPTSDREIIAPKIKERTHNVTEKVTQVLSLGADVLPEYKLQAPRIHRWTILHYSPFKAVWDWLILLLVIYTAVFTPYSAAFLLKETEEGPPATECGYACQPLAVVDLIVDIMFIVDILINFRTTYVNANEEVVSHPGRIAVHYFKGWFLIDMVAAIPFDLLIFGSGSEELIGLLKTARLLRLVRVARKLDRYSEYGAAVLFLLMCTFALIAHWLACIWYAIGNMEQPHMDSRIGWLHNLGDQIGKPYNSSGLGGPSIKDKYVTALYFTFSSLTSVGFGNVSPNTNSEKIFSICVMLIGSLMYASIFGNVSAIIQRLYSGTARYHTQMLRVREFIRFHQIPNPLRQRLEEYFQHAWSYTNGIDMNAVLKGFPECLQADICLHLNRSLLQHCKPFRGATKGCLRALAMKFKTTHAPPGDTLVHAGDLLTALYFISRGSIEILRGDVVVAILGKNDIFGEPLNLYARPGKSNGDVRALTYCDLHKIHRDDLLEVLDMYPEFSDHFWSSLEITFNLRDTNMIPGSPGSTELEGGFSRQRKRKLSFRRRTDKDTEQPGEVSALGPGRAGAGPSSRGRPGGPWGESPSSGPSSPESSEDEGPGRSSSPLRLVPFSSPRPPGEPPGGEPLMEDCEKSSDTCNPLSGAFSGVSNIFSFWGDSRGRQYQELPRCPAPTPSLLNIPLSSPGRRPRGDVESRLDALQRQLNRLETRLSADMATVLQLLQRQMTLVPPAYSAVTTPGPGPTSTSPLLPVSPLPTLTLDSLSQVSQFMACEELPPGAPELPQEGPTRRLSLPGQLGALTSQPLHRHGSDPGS
- assay summary: hERG electrophysiological inhibition assay using the Qube technology (automated patch clamp, CHO cells)
- Assay type: cell-based
- particulars: CHO (T-REx) hERG cells, 35° C., tail current
pIC50: −log10 of the molar value.

INSERT INTO assay_data (molecule, target_or_test_system, observable, value_reported) VALUES
  ('Cc1cc(C(F)(F)F)cc(O)c1-c1cc(CO)c(N[C@@H]2CCCN(C)C2)nn1', 'alpha-subunit of the hERG channel (Homo sapiens, UniProt Q12809)', 'pIC50', '< 4.52');

[Q] Which measured pIC50 belongs to Cc1cc(C(F)(F)F)cc(O)c1-c1nnc(N[C@@H]2CCCN(C)C2)c2c1COC2 [Reference ex. 3] , tested on alpha-subunit of the hERG channel (Homo sapiens, UniProt Q12809)?
[A] < 4.52

###

- target or test system: hERG (Homo sapiens, UniProt Q12809)
- Sequence (Q12809 whole entry): as the sequence (Q12809 whole entry) above
- assay summary: hERG electrophysiological inhibition assay using the Qube technology (automated patch clamp, CHO cells)
- Format: cell-based
- Design: expressed in transfected cells; host or cells: CHO (T-REX) cells, tetracycline-induced
- particulars: human, pH 7.4; 30 μM, CHO (T-REx) hERG cells, 35° C.
observable: inhibition at 7.5 min, 30 µM (%)
Field: numeric (%). Do not append units.

Look over these answered cases.
INSERT INTO results (compound, value_reported) VALUES
  ('Cc1cc(C(F)(F)F)cc(O)c1-c1cc(C(F)(F)F)c(N[C@@H]2CCCN(C)C2)nn1 [Reference ex. 2]', 74.9),
  ('Cc1cc(-c2c(C)cc(C(F)(F)F)cc2O)nnc1N[C@@H]1CCCN(C)C1 [Reference ex. 1]', 77.9),
  ('Cc1cc(C(F)(F)F)cc(O)c1-c1nnc(N[C@@H]2CCCN(C)C2)c2c1COC2 [Reference ex. 3]', 49.8);

Next:
[Q] Need inhibition at 7.5 min, 30 µM of Cc1cc(C(F)(F)F)cc(O)c1-c1cc(CO)c(N[C@@H]2CCCN(C)C2)nn1 , thanks.
[A] 40.9

###

- target or test system: hERG (Homo sapiens)
- assay summary: hERG channel test using the QPatch technology (automated patch clamp, CHO cells)
- Format: cell-based
- Set-up: host or cells: CHO cells
- particulars: CHO cells stably expressing hERG, room temperature, tail current; tested at 1, 10 and 30 μM
observable: IC50

[Q] Which measured IC50 belongs to Cc1cc(C(F)(F)F)cc(O)c1-c1cc(CO)c(N[C@@H]2CCCN(C)C2)nn1 , tested on hERG (Homo sapiens)?
[A] > 30 µM

###

- target or test system: alpha-subunit of the hERG channel (Homo sapiens)
- Construct: expressed in transfected cells; host or cells: CHO (T-REX) cells, tetracycline-induced
- assay summary: hERG electrophysiological inhibition assay using the Qube technology (automated patch clamp, CHO cells)
- Format: cell-based
- particulars: unit inferred
observable: IC50 (µM)
Field: numeric (µM). Do not append units.

[Q] Need IC50 of Cc1cc(-c2c(C)cc(C(F)(F)F)cc2O)nnc1N[C@@H]1CCCN(C)C1 [Reference ex. 1] , thanks.
[A] 4.71

[Q] Need IC50 of Cc1cc(C(F)(F)F)cc(O)c1-c1cc(C(F)(F)F)c(N[C@@H]2CCCN(C)C2)nn1 [Reference ex. 2] , thanks.
[A] 5.62

###

- target or test system: hERG (Homo sapiens)
- assay summary: hERG channel test using the QPatch technology (automated patch clamp, CHO cells)
- Assay type: cell-based
- Parameters: host or cells: CHO cells
- particulars: unit inferred
observable: pIC50
Reminder that pIC50 is minus the log10 of a molar concentration.

INSERT INTO results (compound, target_or_test_system, observable, value_reported) VALUES
  ('Cc1cc(-c2c(C)cc(C(F)(F)F)cc2O)nnc1N[C@@H]1CCCN(C)C1 [Reference ex. 1]', 'hERG (Homo sapiens)', 'pIC50', 4.88);

Next:
[Q] Which measured pIC50 belongs to Cc1cc(C(F)(F)F)cc(O)c1-c1cc(C(F)(F)F)c(N[C@@H]2CCCN(C)C2)nn1 [Reference ex. 2] , tested on hERG (Homo sapiens)?
[A] 5.41
